For each record, write down the corresponding MIC.
- Tested on: E. coli ATCC 25922
- Assay remarks: MIC, 2-fold microdilution, resazurin method
- Type: cell-based
- Assay setup: Escherichia coli, ATCC25922; Supplementary Table 1; read-out: MIC (µg/ml) E. coli 25922

>>> meas_value("N#CSc1cc(SC#N)c2nsnc2c1[N+](=O)[O-]")
"> 512 µg/mL"

I would be grateful if you could provide MIC for each of the following entries.
1. COC(=O)CSc1cc(SCC(=O)OC)c2nsnc2c1[N+](=O)[O-]
2. CCOC(=O)CSc1c(C)cc2nsnc2c1[N+](=O)[O-]

*A*
1. > 256 µg/mL
2. > 256 µg/mL

Working through the 2 compounds below one at a time, give MIC for each.
1. COC(=O)CSc1ccc2nsnc2c1[N+](=O)[O-]
2. O=C(O)CSc1ccc2nsnc2c1[N+](=O)[O-]

*A*
["8 µg/mL", "> 512 µg/mL"]

---

- Test system: B. cenocepacia J2315
- Assay remarks: MIC, 2-fold microdilution, resazurin method
- Type: cell-based, Burkholderia cenocepacia
- Assay setup: Burkholderia cenocepacia, J2315; LB, 48 h; read-out: MIC B. cenocepacia J2315
Result type: MIC

Known MIC results, listed for orientation:
>>> meas_value("O=[N+]([O-])c1c(SC(=S)N2CCSCC2)ccc2nsnc12 [compound 11126015]")
"> 128 µg/mL"
>>> meas_value("COc1cc(SC#N)c2nsnc2c1[N+](=O)[O-] [compound 11126009]")
"> 128 µg/mL"
>>> meas_value("CCOC(=O)COc1ccc2nsnc2c1[N+](=O)[O-] [compound 11726041]")
"> 256 µg/mL"
>>> meas_value("CCOC(=O)CSc1ccc2nsnc2c1[N+](=O)[O-] [compound 11426142]")
"32 µg/mL"

Go through the items and report each one's MIC.
1. CCCCCSc1ccc2nsnc2c1[N+](=O)[O-] [compound 10726015]
2. O=C1CSc2ccc3nsnc3c2N1 [compound 11626109]
3. CCOC(=O)C(C)Sc1ccc2nsnc2c1[N+](=O)[O-] (stereo not drawn) [compound 11826110]
4. COC(=O)CSc1c(C)cc2nsnc2c1[N+](=O)[O-] [compound 11926141]
5. COC(=O)C(C)Sc1ccc2nsnc2c1[N+](=O)[O-] (stereo not drawn) [compound 11826363]

*A*
1. > 64 µg/mL
2. 512 µg/mL
3. 16 µg/mL
4. > 256 µg/mL
5. 16 µg/mL

---

- Tgt: Burkholderia cenocepacia purified FtsZ protein (Burkholderia cenocepacia, UniProt B4E5Y7)
- Sequence (B4E5Y7 entry or part of it): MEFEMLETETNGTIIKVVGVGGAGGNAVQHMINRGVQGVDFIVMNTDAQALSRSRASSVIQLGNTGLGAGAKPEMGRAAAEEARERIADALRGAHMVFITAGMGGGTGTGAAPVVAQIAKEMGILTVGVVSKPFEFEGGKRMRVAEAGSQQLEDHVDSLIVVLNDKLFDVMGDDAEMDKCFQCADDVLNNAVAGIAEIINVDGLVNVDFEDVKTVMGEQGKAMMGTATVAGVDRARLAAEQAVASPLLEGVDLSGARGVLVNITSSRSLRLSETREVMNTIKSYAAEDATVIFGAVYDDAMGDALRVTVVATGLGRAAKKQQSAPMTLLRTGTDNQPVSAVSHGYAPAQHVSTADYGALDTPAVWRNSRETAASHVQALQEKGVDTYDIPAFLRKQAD
- Assay remarks: biochemical
- Assay type: biochemical
- Assay setup: read-out: Inhibition of Bc FtsZ IC50; GTPase activity
Result type: IC50 (µM)
Give bare numbers, in µM.

Item "O=[N+]([O-])c1c(N=C=S)ccc2nsnc12" was tested on Burkholderia cenocepacia purified FtsZ protein (Burkholderia cenocepacia, UniProt B4E5Y7); the reported IC50 is 20

---

- System: B. cenocepacia J2315
- Assay remarks: MIC, 2-fold microdilution, resazurin method
- Type: cell-based, Burkholderia cenocepacia
- Assay setup: Burkholderia cenocepacia, J2315; LB, 48 h; read-out: MIC B. cenocepacia J2315
Give measured MIC for each item. Keep answers brief.
One number for each entry, in µg/mL.

>>> meas_value("COC(=O)CSc1cc(SCC(=O)OC)c2nsnc2c1[N+](=O)[O-] [compound 11726258]")
256

Consider the additional molecule presented here.
So the reported MIC for COC(=O)CS(=O)(=O)c1ccc2nsnc2c1[N+](=O)[O-] [compound 11826109] , on B. cenocepacia J2315, turned out to be 256

Where these numbers come from: paper PMC7154053
